- assay.explanation: Toxicity liver stage against HepG2, at 10uM
- Format: cell-based
- Parameters: test concentration 10 uM, cell line HepG2-A16-CD81EGFP
- condition.set: human, HepG2-A16-CD81EGFP cells; read-out: INHIBITION
measurement.kind: cytotoxicity at 10 µM (%)
// note: answer is a bare numeric in %

Give cytotoxicity at 10 µM for the following molecule: `CC(C)OCCCNC(=O)c1c(-n2cnnn2)sc2c1CCCC2`
11.9

Give cytotoxicity at 10 µM for the following molecule: O=C(NCC1CC1)C1CN(C(=O)c2ccco2)CC12CCOCC2 (centres undefined)
6.61

Give cytotoxicity at 10 µM for the following molecule: `c1coc(CN2C[C@@H]3CCCO[C@@H]3[C@H](N3CCCC3)C2)c1`
-2.02

Give cytotoxicity at 10 µM for the following molecule: `CCn1ccnc1CN1CCCN(C(=O)c2cc(Cl)c[nH]2)CC1`
-9.6

Give cytotoxicity at 10 µM for the following molecule: `CCc1c(C(=O)N2CCOC(C)(C)C2)cnn1-c1ccccn1`
-7.92

Give cytotoxicity at 10 µM for the following molecule: `Cn1cc(CN2CCC3(CCCN3Cc3cccnc3)CC2)cn1`
2.43

Give cytotoxicity at 10 µM for the following molecule: CN(Cc1noc(C2CC2)n1)C1CCCN(c2cccnn2)C1 (centres undefined)
-2.66

Give cytotoxicity at 10 µM for the following molecule: `CN1CC2(CCN(C(=O)C3CCC3)CC2)COc2ccccc2S1(=O)=O`
10.2

Give cytotoxicity at 10 µM for the following molecule: `CNc1cc(C)nc(N2CCC3(CC2)[C@H](O)C[C@@H]3OCCO)n1`
-1.82

Give cytotoxicity at 10 µM for the following molecule: `Cc1ccc(C(=O)NS(=O)(=O)c2cc(F)ccc2F)c(=O)[nH]1`
-1.73

Give cytotoxicity at 10 µM for the following molecule: `CCn1nc(C)c(CN(CCOC)C(=O)c2ccccc2N(C)C)c1C`
-1.14

Give cytotoxicity at 10 µM for the following molecule: `CCc1cc(CNC(=O)Nc2cc(F)ccc2N2CCCCC2)on1`
-18.9

Give cytotoxicity at 10 µM for the following molecule: Cc1nc(C)n(CC2CCCN2c2ncnc3ccsc23)n1 (centres undefined)
7.61

Give cytotoxicity at 10 µM for the following molecule: `COCc1nc(C(=O)N2CCN(c3nccc(OC)n3)CC2)cs1`
-7.68

Give cytotoxicity at 10 µM for the following molecule: `CN1CSC[C@H]1C(=O)N1CCN(Cc2cccc(F)c2)CC1`
-6.92

Give cytotoxicity at 10 µM for the following molecule: `CCn1cc(CN(C)S(=O)(=O)c2ccc(Cl)cc2)cn1`
3.77

Give cytotoxicity at 10 µM for the following molecule: `c1coc(CN2CCn3c(nc4ccccc43)C2)c1`
21.8

Give cytotoxicity at 10 µM for the following molecule: Cc1cn2c(n1)CCC(NS(=O)(=O)c1sc(C)nc1C)C2 (centres undefined)
-20.8

Give cytotoxicity at 10 µM for the following molecule: Cc1nc(C)n(CC2CN(Cc3cccnc3)CCO2)n1 (centres undefined)
-5.38

Give cytotoxicity at 10 µM for the following molecule: `Cn1cnc(S(=O)(=O)N2CCCn3cnc(CN4CCCC4)c3C2)c1`
1.27

Give cytotoxicity at 10 µM for the following molecule: CCc1cnc(CN(C)C2CCN(CC(=O)Nc3nccs3)C2)o1 (centres undefined)
-18.7

Give cytotoxicity at 10 µM for the following molecule: `CCCNC(=O)Nc1ncc(-c2cccnc2)s1`
3.11

Give cytotoxicity at 10 µM for the following molecule: Cc1ccsc1CN1CCC(n2cc(C(O)c3ccccc3)nn2)CC1 (centres undefined)
8.69

Give cytotoxicity at 10 µM for the following molecule: Cc1cnn(CC2CCCN2C(=O)c2cn(C)c3ccccc23)c1 (centres undefined)
-2.12
